- TARGET DESC: RET(KD: 658-1114 G810R) (Homo sapiens, UniProt P07949, G810R)
- Construct: 658-1114; expressed in transfected cells; host or cells: 293T.165 (293T cells, generated in-house)
- Sequence (P07949 658-1114 G810R): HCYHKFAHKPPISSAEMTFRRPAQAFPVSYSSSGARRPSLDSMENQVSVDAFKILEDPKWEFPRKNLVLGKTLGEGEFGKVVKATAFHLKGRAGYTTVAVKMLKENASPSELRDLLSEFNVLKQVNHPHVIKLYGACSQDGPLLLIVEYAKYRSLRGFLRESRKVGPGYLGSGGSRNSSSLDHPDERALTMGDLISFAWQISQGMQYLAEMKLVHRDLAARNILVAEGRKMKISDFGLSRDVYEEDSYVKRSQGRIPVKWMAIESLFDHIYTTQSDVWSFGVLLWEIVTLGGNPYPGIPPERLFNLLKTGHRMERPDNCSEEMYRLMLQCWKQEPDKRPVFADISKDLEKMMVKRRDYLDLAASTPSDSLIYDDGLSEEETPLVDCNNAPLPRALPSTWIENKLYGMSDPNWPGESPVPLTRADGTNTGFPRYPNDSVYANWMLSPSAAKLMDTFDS
- ASSAY NOTES: HiBiT-Degradation, RET G810R degradation assay (Nano-Glo HiBiT Lytic), 293T.165 cells
- Type: cell-based
- CONDITION DETAILS: 6.0 hours, % remaining protein, read-out: 293T.165 RET(KD: 658-1114 G810R) 6.0 hours (Emax)

COMPOUND	Emax
CN(Cc1ccc(-c2cn3ncc(C#N)c3c(-c3ccc(N4CCN(Cc5ccccn5)CC4)nc3)n2)cc1)C(=O)CN1CCC(c2ccc(NC3CCC(=O)NC3=O)cc2)CC1 (centres unmarked)	< 50%
N#Cc1cnn2cc(-c3cnn([C@H]4CC[C@H](N5CCN(c6ccc(NC7CCC(=O)NC7=O)cc6F)CC5)CC4)c3)nc(-c3ccc(N4CC5COCC(C4)N5Cc4ccccn4)nc3)c12 (single isomer, unassigned)	< 30%
N#Cc1cnn2cc(-c3cnn([C@H]4CC[C@H](N5CCC(c6ccc(N[C@@H]7CCC(=O)NC7=O)cc6F)CC5)CC4)c3)nc(-c3ccc(N4CCC5(CC4)OCc4cccnc45)nc3)c12 (relative stereo) [Compound 149]	< 30%
N#Cc1cnn2cc(-c3cnn(C4CCN(CCN5CCC(c6ccc(NC7CCC(=O)NC7=O)cc6F)CC5)CC4)c3)cc(-c3ccc(N4CCN(Cc5ccccn5)CC4)nc3)c12 (centres unmarked)	< 50%
N#Cc1cnn2cc(-c3cnn(C4CCN(C(=O)CC5(O)CCN(c6ccc(NC7CCC(=O)NC7=O)cc6F)CC5)CC4)c3)nc(-c3ccc(N4CC5CC(C4)N5Cc4ccccc4)nc3)c12 (centres unmarked)	< 30%

====

- TARGET DESC: RET(KD: 658-1114 G810R) (Homo sapiens, UniProt P07949, G810R)
- Construct: 658-1114; expressed in transfected cells; host or cells: 293T.165 (293T cells, generated in-house)
- ASSAY NOTES: HiBiT-Degradation, RET G810R degradation assay (Nano-Glo HiBiT Lytic), 293T.165 cells
- Assay type: cell-based
READOUT: 293T.165 RET(KD: 658-1114 G810R) 6.0 hours (IP) [nM]

COMPOUND	TARGET DESC	RESULT VALUE
CCC1(C(=O)NC(C)C)CCN(c2ccc(-c3nc(-c4cnn(C5CCN(C(=O)CC6(O)CCN(c7ccc(NC8CCC(=O)NC8=O)cc7Br)CC6)CC5)c4)cn4ncc(C#N)c34)cn2)CC1 (stereo not drawn) [Compound 95]	RET(KD: 658-1114 G810R) (Homo sapiens, UniProt P07949, G810R)	++++ (<50 nM = ++++)
CCC1(C(=O)NC(C)C)CCN(c2ccc(-c3nc(-c4cnn(C5CCN(CC6(O)CCN(c7ccc(NC8CCC(=O)NC8=O)cc7F)CC6)CC5)c4)cn4ncc(C#N)c34)cn2)CC1 (stereo not drawn) [Compound 118]	RET(KD: 658-1114 G810R) (Homo sapiens, UniProt P07949, G810R)	++++ (<50 nM = ++++)
CCC1(C(=O)Nc2ccc(F)cc2)CCN(c2ccc(-c3nc(-c4cnn(C5CCN(C(=O)CC6(O)CCN(c7ccc(NC8CCC(=O)NC8=O)cc7Cl)CC6)CC5)c4)cn4ncc(C#N)c34)cn2)CC1 (stereo not drawn) [Compound 100]	RET(KD: 658-1114 G810R) (Homo sapiens, UniProt P07949, G810R)	++++ (<50 nM = ++++)
